# Test system: A549
# ASSAY_NAME: cells
# PARTICULARS: Homo sapiens, A549, 72 h
ASSAY_METRIC: IC50 (nM)

| MOLECULE | IC50 [nM] |
| --- | --- |
| CNC(=O)c1ccccc1Nc1nc(Nc2ccc(N3CCN(CCCCCCCCC(=O)Nc4cccc5c4C(=O)N(C4CCC(=O)NC4=O)C5=O)CC3)cc2OC)ncc1Cl (stereo not drawn) | 1350 |

I. CNC(=O)c1ccccc1Nc1nc(Nc2ccc(N3CCN(CCCCC(=O)Nc4cccc5c4C(=O)N(C4CCC(=O)NC4=O)C5=O)CC3)cc2OC)ncc1Cl (stereo not drawn)
II. CNC(=O)c1ccccc1Nc1nc(Nc2ccc(N3CCN(CCCCCC(=O)NCCNc4cccc5c4C(=O)N(C4CCC(=O)NC4=O)C5=O)CC3)cc2OC)ncc1Cl (stereo not drawn)
Exam item: Quick check, higher IC50 between I and II ? Please reply using the label of the selected record.
Marked response: II

* * *

# ASSAY_NAME: Stability in pooled human plasma assessed as parent compound remaining at 2 uM measured after 30 mins by LC-MS/MS analysis (reference value: 100%)
# Type: ADME, cell-free
# PARTICULARS: read-out: Stability
ASSAY_METRIC: remaining at 0.5 h, 2 µM (%)
Quick note: give the figure in %, leave out the unit.

Exam item: Name the reported remaining at 0.5 h, 2 µM value associated with the molecule CNC(=O)c1ccccc1Nc1nc(Nc2ccc(N3CCN(CCCCC(=O)Nc4cccc5c4C(=O)N(C4CCC(=O)NC4=O)C5=O)CC3)cc2OC)ncc1Cl (stereo unspecified)
Marked response: 96.6

* * *

# ASSAY_NAME: Apparent permeability across apical to basolateral side in human Caco-2 cells at 2 uM incubated for 2 hrs by LC-MS/MS analysis
# Assay type: ADME, cell-based
ASSAY_METRIC: Papp A→B at 2 h, 2 µM (×10⁻⁶ cm/s)
Express it in ×10⁻⁶ cm/s; write the number only.

Exam item: Name the recorded Papp A→B at 2 h, 2 µM for CNC(=O)c1ccccc1Nc1nc(Nc2ccc(N3CCN(CCCCC(=O)Nc4cccc5c4C(=O)N(C4CCC(=O)NC4=O)C5=O)CC3)cc2OC)ncc1Cl (stereo unspecified) .
Marked response: 1.4

* * *

# ASSAY_NAME: Stability in pooled human plasma assessed as half life at 2 uM measured upto 120 mins by LC-MS/MS analysis
# Format: ADME, cell-free
ASSAY_METRIC: half-life at 2 µM

Exam item: half-life at 2 µM lookup needed for CNC(=O)c1ccccc1Nc1nc(Nc2ccc(N3CCN(CCCCC(=O)Nc4cccc5c4C(=O)N(C4CCC(=O)NC4=O)C5=O)CC3)cc2OC)ncc1Cl (stereo unspecified) , thanks.
Marked response: > 4.82 h

* * *

# ASSAY_NAME: Stability in pooled human plasma assessed as parent compound remaining at 2 uM measured after 120 mins by LC-MS/MS analysis (reference value: 100%)
# Format: ADME, cell-free
# PARTICULARS: read-out: Stability
ASSAY_METRIC: remaining at 2 h, 2 µM (%)
Response body: numeric value in %, unit text excluded.

Exam item: What value of remaining at 2 h, 2 µM has been recorded for this entry: CNC(=O)c1ccccc1Nc1nc(Nc2ccc(N3CCN(CCCCC(=O)Nc4cccc5c4C(=O)N(C4CCC(=O)NC4=O)C5=O)CC3)cc2OC)ncc1Cl (stereo unspecified)
Marked response: 86.2
